Origin of the recorded values: paper PMC9873984

biological target: GlyT2 Y430L mutant (Homo sapiens, UniProt Q9Y345, Y430L); test: Inhibitor washout time course (reversibility); type: cell-based; set-up: expressed in transfected cells; host or cells: Xenopus laevis oocytes injected with mutant RNA (pOTV vector); conditions: washout after 4 min IC50 concentration
Sequence (Q9Y345 whole entry Y430L): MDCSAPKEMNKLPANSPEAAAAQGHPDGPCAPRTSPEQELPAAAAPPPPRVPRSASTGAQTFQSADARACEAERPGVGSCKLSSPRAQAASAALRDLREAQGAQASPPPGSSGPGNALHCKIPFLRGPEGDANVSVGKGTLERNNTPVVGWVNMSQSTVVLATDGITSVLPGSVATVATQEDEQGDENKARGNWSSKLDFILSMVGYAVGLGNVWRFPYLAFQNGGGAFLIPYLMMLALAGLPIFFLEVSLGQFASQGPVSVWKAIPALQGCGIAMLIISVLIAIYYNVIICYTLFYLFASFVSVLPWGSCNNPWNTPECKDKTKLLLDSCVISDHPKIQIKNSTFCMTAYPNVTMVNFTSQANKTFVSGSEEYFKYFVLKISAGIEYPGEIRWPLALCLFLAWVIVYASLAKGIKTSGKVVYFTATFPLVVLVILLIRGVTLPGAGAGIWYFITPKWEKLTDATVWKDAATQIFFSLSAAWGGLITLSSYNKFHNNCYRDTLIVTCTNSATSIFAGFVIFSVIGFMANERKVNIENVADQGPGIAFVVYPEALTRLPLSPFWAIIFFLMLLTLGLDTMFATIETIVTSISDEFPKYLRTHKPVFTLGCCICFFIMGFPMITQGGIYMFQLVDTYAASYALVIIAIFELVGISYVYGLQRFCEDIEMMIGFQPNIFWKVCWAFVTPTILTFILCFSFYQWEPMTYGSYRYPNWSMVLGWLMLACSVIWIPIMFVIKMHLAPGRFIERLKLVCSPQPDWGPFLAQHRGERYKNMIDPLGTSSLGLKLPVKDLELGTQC
QUANTITY MEASURED: Recovery at 30 Min (%)
// units = %; emit number, no label

The following compounds have reported results that may help.
INSERT INTO results (chem_smiles, value_reported) VALUES
  ('CCCCCCCC/C=C\CCCCCCCC(=O)N[C@@H](CC(C)C)C(=O)O', 67.9),
  ('CCCCCCCC/C=C\CCCCCCCC(=O)O[C@H](CC(=O)[O-])C[N+](C)(C)C', 80.6);

Input: State, in one line, measured Recovery at 30 Min of CCCCCCCC/C=C\CCCCCCCC(=O)N[C@@H](CCCCN)C(=O)O
Output: 72.5
